# Test system: A498 renal
# ASSAY_PROCEDURE: NCI tumour cell line growth inhibition, 48 h; in the data active = GI50 below about 0.43 µM; inactive = the rest
Labels: t (active), f (inactive)

| MOLECULE | ANSWER_LABEL |
| --- | --- |
| Cc1cc2cn3c4ccc(O)cc4[nH]c(=O)c3c2cc1C | t |
| Cc1cc(Nc2c3ccccc3nc3ccccc23)ccc1NS(C)(=O)=O | f |
| Nc1nc2cc3ccc(C4CC(O)C(CO)O4)cc3cc2c(=O)[nH]1 (stereo not given) | f |
| CN(C)C/C=C/C(=O)Nc1cc2c(Nc3ccc(F)c(Cl)c3F)ncnc2cc1OCCOC(F)F | t |
| Cc1nccc2c3ccc(OCc4cn(-c5ccc(Cl)cc5)nn4)cc3n(CCCc3ccccc3)c12 | f |
| Cc1cc(O)c(C2=NN(c3ccc(S(N)(=O)=O)cc3)C(c3ccc(N(C)C)cc3)C2)c(C)c1Cl (stereo not given) | f |
| CN1CCN(c2cc(C(=O)Nc3cc4cc(-c5cnn(C)c5)ccc4cn3)ccn2)CC1 | t |
| O=c1c(O)cccc2cc(O)c(O)c(O)c12 | f |
| CS(=O)(=O)Nc1cccc(-c2cc(-c3ccccc3Cl)c(C#N)c(N)n2)c1 | f |
| CCn1cc(-c2ccnc3[nH]ccc23)c(-c2cccc(NC(=O)Nc3ccc(OCc4ccccc4)cc3)c2)n1 | f |

====

# Tested on: NCI/ADR-RES ovarian
# ASSAY_PROCEDURE: NCI tumour cell line growth inhibition, 48 h

| MOLECULE | GI50 |
| --- | --- |
| O=C(/C=C/C=C/c1c(C2CC2)nc2ccccc2c1-c1ccc(F)cc1)c1cccs1 | 2.62 µM |
| Fc1ccc(-c2ncn(C3CCNCC3)c2-c2ccnc(Oc3ccc(F)c(F)c3)n2)cc1 | 8.83 µM |
| CN(C)C/C=C/C(=O)Nc1cc2c(Nc3ccc(F)c(Cl)c3F)ncnc2cc1OCCOC(F)F | 0.499 µM |
| Cc1cc(Nc2c3ccccc3nc3ccccc23)ccc1NS(C)(=O)=O | 5.63 µM |
| CCCCCCCCCCCCCCCC[N+](C)(CCO)Cc1cnc[nH]1 (stereo not given) | 14.7 µM |

====

# Tested on: T-47D breast
# ASSAY_PROCEDURE: NCI tumour cell line growth inhibition, 48 h
A collection of compounds and their measured TGI
OUTCOME_MEASURE: TGI

| COMPOUND | TEST_RESULT |
| --- | --- |
| CN(C)c1ncc(-c2ccc(C(F)(F)F)cc2)c(NC2CCCCCC2)n1 | > 100 µM |
| c1ccc(P(CCP(c2ccccn2)c2ccccn2)c2ccccc2)cc1 | > 100 µM |
| CC1=CCC2C3(C)CCC2(C(C)C)C1C3 (stereo not drawn) (tested in a mixture with another compound) | > 100 µM |
| O=[N+]([O-])c1ccccc1NC1c2ccccc2Oc2ccccc21 | > 100 µM |
| C/C=C1/CN2CCC3(O)c4ccccc4N4C=C(C(=O)OC)C1CC2C43O (stereo not drawn) | > 100 µM |
| CC(C)(C)c1cc2c(O)c(c1)Cc1cc(C(C#N)(Cc3ccc4ccccc4c3)Cc3ccc4ccccc4c3)cc(c1O)Cc1cc(C(C)(C)C)cc(c1O)Cc1cc(C(C#N)(Cc3ccc4ccccc4c3)Cc3ccc4ccccc4c3)cc(c1O)C2 | > 100 µM |
| O=Cc1ccc(-c2ccc(-c3nc4ccccc4o3)cc2)s1 | > 100 µM |
| CN1CCN(c2cc(C(=O)Nc3cc4cc(-c5cnn(C)c5)ccc4cn3)ccn2)CC1 | 10.5 µM |

FYI, the data here is from PubChem BioAssay (NCI).
